Cited source: ChEMBL document CHEMBL1144173

Exercise: for every item that follows, state its recorded bioavailability.
PROCEDURE SUMMARY: Oral bioavailability in rat at 10 mg/kg
Type: ADME, organism-based
EXPERIMENTAL SETUP: in vivo

> print(dat)
                                   molecule  measured.parameter  result.value
1  CCN(CC(=O)N1CCN(C2CCN(C)CC2)CC1)C(=O)c1nc2ccccc2n1Cc1ccccc1     bioavailability          < 5%

Next molecule, bioavailability to be filled in.
// query Please report the recorded bioavailability for CCCN1C(=O)C(NC(=O)Nc2ccc(N3CCN(c4ccncc4)CC3)cc2)N=C(CCc2ccccc2)c2ccccc21 (configuration not stated) .
// result < 4%
